# Test system: Saccharomyces cerevisiae IFO-0210
# Method summary: Antibacterial and antifungal activity, paper disc method
# Type: cell-based
# Assay conditions: IFO0210, paper disc d=8 mm dipped in 1,000 µg/ml solution, YNB agar medium, read-out: diameter of the growth inhibition circle, Sac.(IFO-0210)
Property: zone of inhibition at 1000 µg/mL; scope: individual compounds
Property: zone of inhibition at 1000 µg/mL

1) CCCCN(CCCC)C(=O)C#CI [Example 18, N,N-Di(n-butyl)-3-iodopropiolamide] ... 21 to 40 mm
2) O=C(C#CI)NC1CCCCC1 [Example 22, N-Cyclohexyl-3-iodopropiolamide] ... 21 to 40 mm
3) CCCCCCCNC(=O)C#CI [Example 9, N-(n-Heptyl)-3-iodopropiolamide] ... 21 to 40 mm
4) O=C(C#CI)Nc1cccc(F)c1 [Example 17, N-(3-Fluorophenyl)-3-iodopropiolamide] ... 21 to 40 mm
5) CCCCCCCCCCNC(=O)C#CI [Example 2, N-(n-Decyl)-3-iodopropiolamide] ... 9 to 20 mm
6) O=C(C#CI)N1CCN(c2ccccc2)CC1 ... 21 to 40 mm
7) CCCCCCCCCNC(=O)C#CI [Example 11, N-(n-Nonyl)-3-iodopropiolamide] ... 9 to 20 mm
8) O=C(C#CI)Nc1cccc(C(F)(F)F)c1 ... 21 to 40 mm
